Parameter: melting point (°C)

compound=CCN(C(C)C)C(C)C result_units=°C result=-46
compound="O=C1c2ccccc2C(=O)N1CCCCBr [N-(4-bromobutyl)phthalimide]" result_units=°C result=79
compound="COc1ccc2c(c1)CC2O (stereo not given) [3-methoxybicyclo[4.2.0]octa-1,3,5-trien-7-ol]" result_units=°C result=38
compound=O=C(O)CCSCCC(=O)O result_units=°C result=131
compound="COc1cc(OC)c2c(c1Cl)O[C@]1(C2=O)C(OC)CC(=O)C[C@H]1C (stereo not given in full) [griseofulvin]" result_units=°C result=220
compound=OC1=NC(=Nc2ccccc2)S/C1=C\c1ccccc1 result_units=°C result=260
compound=O=C(O)CSc1nnc(S)s1 result_units=°C result=167
compound=O=C1NC(=O)c2cc([N+](=O)[O-])ccc21 result_units=°C result=181
compound="O=C(CBr)c1ccc2c(c1)OCCCO2 [7-bromoacetyl-3,4-dihydro-1,5-benzodioxepin]" result_units=°C result=76
compound="COC(=O)c1ccc(Br)cc1 [methyl_4-bromobenzoate]" result_units=°C result=81
compound="CCOC(=O)C1=C(C)CC(C)=N1 [ethyl 3,5-dimethylpyrrole-2-carboxylate]" result_units=°C result=126
compound=COc1ccc(/C=C(\Oc2ccc(Cl)cc2)c2nc3ccccc3s2)cc1 result_units=°C result=138
compound="CC1CCC(C(C)C)C(OC(=O)C2(C)CCC(C)C2(C)C)C1 (stereo not given)" result_units=°C result=50
compound=Cc1cc(C)c(Br)c(C)c1 result_units=°C result=2
compound="Cc1cc(O)cc(C)c1Cl [4-Chloro-3,5-dimethylphenol]" result_units=°C result=115
compound="NC(=O)c1cccc([N+](=O)[O-])c1 [m-nitrobenzamide]" result_units=°C result=143
compound="CCCCC1C(=O)N(c2ccccc2)N(c2ccccc2)C1=O [Phenylbutazone]" result_units=°C result=105
compound=COc1cc2nc(N3CCN(C(=O)c4ccco4)CC3)nc(N)c2cc1OC result_units=°C result=285
compound="O=C(O)/C=C(/CC(=O)O)C(=O)O [cis-aconitic acid]" result_units=°C result=118
compound="CC(=O)Nc1ccc(O)cc1 [Acetaminophen]" result_units=°C result=170

---

Please note: class 1 applies when melting point is 70 °C or greater, and class 0 applies otherwise.

compound="CC(=O)OC1=CC(c2ccccc2)c2ccccc21 (stereo unspecified) [1-phenyl-1H-inden-3-yl acetate]" cat="class 0"
compound=COc1cc(C=O)ccc1O cat="class 1"
compound=CCCOCCC cat="class 0"
compound=COc1ccc(C=O)cc1B(O)O cat="class 1"
compound=Cc1cc(C)nc(NS(=O)(=O)c2ccc(N)cc2)n1 cat="class 1"
compound="CN(C)c1ccc(C=O)cc1 [4-(Dimethylamino)benzaldehyde]" cat="class 1"

---

Parameter: melting point (°C)

compound="ClCc1ccc(Br)cc1 [4-bromobenzyl chloride]" result=40
compound="OC1CCCC1 [cyclopentanol]" result=-19
compound="CC(C)(C)C(=O)O [2,2-dimethylpropanoic_acid]" result=36
compound="O=C(O)c1ccccc1Nc1cccc(C(F)(F)F)c1 [Flufenamic Acid]" result=134
compound="Cc1cc(B(O)O)ccc1Cl [4-chloro-3-methylbenzeneboronic acid]" result=240
compound="O=C(O)Cc1ccccc1 [phenylacetic acid]" result=77.5

---

Hi! Could you tag entries with melting point below 2 °C as yes (1), and those at or above as no (0)? Much appreciated.

compound=CC(C)(C)/[N+]([O-])=C/c1ccccc1 cat="no (0)"
compound=COc1ccc(NC(=S)c2cc(C(C)(C)C)c(O)c(C(C)(C)C)c2)cc1 cat="no (0)"
compound=CCCCCCC(C)=O cat="yes (1)"
compound="CCCCC[C@H](O)/C=C/[C@H]1[C@H](O)CC(=O)[C@@H]1C/C=C\\CCCC(=O)O [prostaglandin E2]" cat="no (0)"
compound="COC(=O)c1ccc(N)c(N)c1 [methyl 3,4-diaminobenzoate]" cat="no (0)"
compound=O=[N+]([O-])c1cccc(Cl)c1 cat="no (0)"
compound="CCNc1ccccc1 [n-ethylaniline]" cat="yes (1)"
compound="O=C1OC(=O)C23Cc4ccccc4CC12Cc1ccccc1C3 (stereo not given)" cat="no (0)"

---

Please note: T applies when melting point is 100 °C or greater, and F applies otherwise.

compound="CC(C)(C)c1cc(C(=Nc2ccccc2)Nc2ccccc2)cc(C(C)(C)C)c1O [3,5-Di-tert-butyl-4-hydroxy-N,N'-diphenyl-benzamidine]" cat=T
compound="O=C(O)c1cnc(Br)s1 [2-bromothiazole-5-carboxylic acid]" cat=T
compound="CC(=O)Nc1cccc2c(N)cccc12 [N-(5-aminonaphthalen-1-yl)acetamide]" cat=T
compound="CC(C)c1cccc(B(O)O)c1 [3-isopropylbenzeneboronic acid]" cat=F
compound="COc1cccc(Cl)c1Cl [2,3-dichloroanisole]" cat=F
compound="COC1=CC(=O)C[C@@H](C)[C@]12Oc1c(Cl)c(OC)cc(OC)c1C2=O [griseofulvin]" cat=T
compound="CNC(=O)Oc1cccc2ccccc12 [1-Naphthyl methylcarbamate]" cat=T
compound="Cc1cc(C(C)(C)C)c(O)c(C(C)(C)C)c1 [2,6-di-tert-butyl-4-methylphenol]" cat=F

---

Parameter: melting point (°C)

compound="[2H]C([2H])=C(C(=O)OC([2H])([2H])[2H])C([2H])([2H])[2H] [(~2~H_3_)Methyl 2-(~2~H_3_)methyl(~2~H_2_)prop-2-enoate]" result_units=°C result=-48
compound="[O-][n+]1ccc2ccc(Br)cc2c1 [7-bromoisoquinoline n-oxide]" result_units=°C result=180
compound="C#CC1(O)CCCCC1 [1-ethynyl-1-cyclohexanol]" result_units=°C result=33
compound="O=C(O)Cc1ccc([N+](=O)[O-])cc1 [4-nitrophenylacetic acid]" result_units=°C result=154
compound="O=C(O)C(O)C(O)C(=O)O (stereo not drawn) [Tartaric acid]" result_units=°C result=210
compound="O=C(Cl)c1ccc(Cl)cc1Cl [2,4-dichlorobenzoyl chloride]" result_units=°C result=18
compound="O[C@H]1[C@H](O)[C@@H](O)[C@H](O)[C@@H](O)[C@H]1O [myo-inositol]" result_units=°C result=226
compound="CC(=O)[C@H]1CC[C@H]2[C@@H]3CCC4=CC(=O)CC[C@]4(C)[C@H]3CC[C@]12C [progesterone]" result_units=°C result=126
compound="CC(C)CCCCCCCOC(=O)c1ccccc1C(=O)OCCCCCCCC(C)C [Bis(8-methylnonyl) phthalate]" result_units=°C result=-50
compound="CCCCNCCCC [N-Butylbutan-1-amine]" result_units=°C result=-60
compound="Cc1ccc(C)c2c1C(=O)NC2=O [4,7-dimethyl-1H-isoindole-1,3(2H)-dione]" result_units=°C result=224
compound="CCCSC [methyl n-propyl sulfide]" result_units=°C result=-113
compound="CCC=O [propionaldehyde]" result_units=°C result=-81
compound="CCCCc1ccccc1 [Butylbenzene]" result_units=°C result=-88
compound="CCCCCCCCC(=O)CC [3-undecanone]" result_units=°C result=13
compound="O=C(O)c1ccccc1Nc1cccc(C(F)(F)F)c1 [Flufenamic Acid]" result_units=°C result=125
compound="Cc1ccccc1-c1ccccc1 [2-methylbiphenyl]" result_units=°C result=0
compound="C[C@]12CCC(=O)C=C1CC[C@@H]1[C@@H]2C(=O)C[C@@]2(C)[C@H]1CC[C@]2(O)C(=O)CO [Cortisone]" result_units=°C result=225
compound="BrCC(Br)CBr [1,2,3-tribromopropane]" result_units=°C result=17
compound="C[C@@H]1CNC[C@H](C)O1 [cis-2,6-dimethylmorpholine]" result_units=°C result=-85
compound="NS(=O)(=O)c1cc2c(cc1Cl)NCNS2(=O)=O [Hydrochlorothiazide]" result_units=°C result=274
compound="O=C(O)/C=C/c1c(F)cccc1F [2,6-difluorocinnamic acid]" result_units=°C result=125
compound="O=Cc1ccc(Oc2ccccc2)cc1 [4-phenoxybenzaldehyde]" result_units=°C result=25
compound="CCOC(=O)Nc1ccc(C)cc1[N+](=O)[O-] [Ethyl (4-methyl-2-nitrophenyl)carbamate]" result_units=°C result=65
compound="COc1ccc(-c2ccc(S(=O)(=O)Cl)cc2)cc1 [4'-methoxybiphenyl-4-sulfonyl chloride]" result_units=°C result=103
compound="Cc1ccc(C(=O)O)cc1 [p-toluic_acid]" result_units=°C result=182
compound="Nc1ccccc1C(O)(c1ccccc1)c1ccccc1 [(2-aminophenyl)(diphenyl)methanol]" result_units=°C result=122
compound="CC(=O)Nc1ccc([N+](=O)[O-])cc1 [4'-nitroacetanilide]" result_units=°C result=216
compound="COC(=O)c1ccc(N)cc1 [methyl p-aminobenzoate]" result_units=°C result=114
compound="NNC(=O)c1cc(Cl)cc(Cl)c1 [3,5-dichlorobenzhydrazide]" result_units=°C result=206
compound="CCCCCOC(=O)c1ccc(O)cc1 [N-pentyl 4-hydroxybenzoate]" result_units=°C result=38
compound="CCOC(=O)C1(c2ccccc2)CCN(C)CC1 [Meperidine]" result_units=°C result=188
compound="C[C@]12CC[C@H]3[C@@H](CCC4=CC(=O)CC[C@@]43C)[C@@H]1CC[C@@H]2OC(=O)CCc1ccccc1 [Testosterone phenylpropanoate]" result_units=°C result=116
compound="O=C(O)c1cc([N+](=O)[O-])ccc1Br [2-bromo-5-nitrobenzoic acid]" result_units=°C result=180
compound="CCCCCBr [1-bromopentane]" result_units=°C result=-88
compound="C#CCO [propargyl_alcohol]" result_units=°C result=-17
compound="O=[N+]([O-])c1ccccc1CBr [2-nitrobenzyl bromide]" result_units=°C result=47
compound="CCOC(=O)Cc1c(C)n(C(=O)c2ccc(Cl)cc2)c2ccc(OC)cc12 [Indomethacin ethyl ester]" result_units=°C result=96
